- Subject of test: human recombinant GST cleaved CSNK1D (Homo sapiens, UniProt P48730)
- Construct: GST (cleaved yes); purchased University of Dundee clone DU 19064
- Sequence (P48730 whole entry): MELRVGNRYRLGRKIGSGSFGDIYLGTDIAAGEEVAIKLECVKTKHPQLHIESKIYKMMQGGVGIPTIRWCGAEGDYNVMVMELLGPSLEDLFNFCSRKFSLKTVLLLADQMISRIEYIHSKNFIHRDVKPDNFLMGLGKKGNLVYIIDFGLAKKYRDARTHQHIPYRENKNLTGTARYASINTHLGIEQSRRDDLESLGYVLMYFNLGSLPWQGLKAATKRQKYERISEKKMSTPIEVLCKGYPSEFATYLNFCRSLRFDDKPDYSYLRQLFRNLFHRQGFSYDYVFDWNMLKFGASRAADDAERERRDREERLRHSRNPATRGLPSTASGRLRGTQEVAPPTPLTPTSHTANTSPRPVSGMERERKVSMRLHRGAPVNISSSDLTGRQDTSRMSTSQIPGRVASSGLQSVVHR
- Method description: Purified Enzyme Assay (ADP-Glo CSNK1D Kinase Assay)
- Format: biochemical
- Assay setup: 2 nM CSNK1D; peptide substrate 150 μM; ATP 20 μM; 45 minutes at room temperature
pIC50: −log10 of the molar value.
Parameter measured: pIC50

Example results:
>>> reading("CC(=O)Nc1cc(-c2c(-c3ccc(F)cc3)nn3c2CC[C@H]2[C@@H]3C2(F)F)ccn1 (stereo in doubt)")
9.00
>>> reading("Fc1ccc(-c2nn3c(c2-c2ccnc4[nH]ncc24)OCC2(C3)CC2(F)F)nc1 (single isomer, unassigned) [Example 479]")
7.49
>>> reading("CC(=O)Nc1cc(-c2c(-c3ccc(F)cn3)nn3c2CC[C@@H]2[C@H]3C2(F)F)ccn1 (stereo in doubt)")
7.30

a = c1csc(-c2nn3c(c2-c2ccnc4[nH]ncc24)CCCC3)n1
b = Fc1ccc(-c2nn3c(c2-c2c(F)cnc4[nH]ncc24)CCC(F)(F)C3)cc1
c = Cc1cc(-c2c(-c3ccc(F)cc3)nn3c2COCC3(C)C)c2cn[nH]c2n1
d = Fc1ccc(-c2nn3c(c2-c2ccnc4[nH]ncc24)OCC2(C3)CC2(F)F)cc1 (single isomer, unassigned) [Example 476]
Ask: Reorder the items by pIC50, least to greatest. Output spec: labels arranged per the requested ranking.
Result: a, c, b, d

----------
- Subject of test: human CSNK1D (Homo sapiens)
- Method description: Whole Cell nBRET CSNK1D Binding Assay
- Assay setup: living CHO cells stably expressing human CSNK1D tagged with nanoluciferase; NanoBret tracer 130 nM; 2 hours at 37 C
Parameter measured: IC50 (µM)

P = COCCC1(C)CCc2c(-c3ccnc4[nH]ncc34)c(-c3ccc(F)cn3)nn2C1 (single isomer, unassigned)
Q = C[C@]1(CF)CCc2c(-c3ccnc4[nH]ncc34)c(-c3ccc(F)cn3)nn2C1 (single isomer, unassigned)
Ask: Lowest IC50? choose P or Q Respond with the label that goes with your answer.
Result: Q

----------
- Subject of test: human recombinant GST cleaved CSNK1D (Homo sapiens, UniProt P48730)
- Construct: GST (cleaved yes)
- Method description: Purified Enzyme Assay (ADP-Glo CSNK1D Kinase Assay)
- Assay setup: 2 nM CSNK1D; peptide substrate 150 μM; ATP 20 μM; 45 minutes at room temperature
pIC50: −log10 of the molar value.
Parameter measured: pIC50

Example results:
>>> reading("Cc1cc(-c2c(-c3ccc(F)cc3)nn3c2OCCC3)c2cn[nH]c2n1")
9.00
>>> reading("Fc1ccc(-c2nn3c(c2-c2ccnc4[nH]ncc24)[C@H]2CC[C@@H]3C2)nc1 (single isomer, unassigned)")
7.92
>>> reading("Cc1n[nH]c2nccc(-c3c(-c4ccc(F)cn4)nn4c3COC(C)(C(F)(F)F)C4)c12 (single isomer, unassigned)")
6.63
>>> reading("[2H]C([2H])([2H])OC[C@@]1(F)CCc2c(-c3cc(C)nc4[nH]ncc34)c(-c3ccc(F)cn3)nn2C1 (single isomer, unassigned)")
7.04

1 = Cc1cc(-c2c(-c3ccc(F)cn3)nn3c2O[C@@H](C)C[C@@H]3C)c2cn[nH]c2n1 (single isomer, unassigned)
2 = CCn1ncc2cc(-c3c(-c4ccc(F)cn4)nn4c3CO[C@@H](C)C4)cnc21
3 = Fc1ccc(-c2nn3c(c2-c2ccn4nccc4c2)CC[C@@H]2[C@H]3C2(F)F)cc1 (stereo in doubt)
Ask: Reorder the items by pIC50, least to greatest. Output spec: labels arranged per the requested ranking.
Result: 2, 3, 1
(2: 6.39, 3: 7.74, 1: 8.10)

----------
- Subject of test: human CSNK1D (Homo sapiens, UniProt P48730)
- Sequence (P48730 whole entry): as above
- Method description: Whole Cell nBRET CSNK1D Binding Assay
- Assay setup: living CHO cells stably expressing human CSNK1D tagged with nanoluciferase; NanoBret tracer 130 nM; 2 hours at 37 C
Parameter measured: IC50 (nM)

>>> reading("[2H]C([2H])([2H])C1(C([2H])([2H])[2H])Cn2nc(-c3ccc(F)cn3)c(-c3c(F)cnc4[nH]ccc34)c2CO1 [Example 397]")
11
>>> reading("Cc1nc2[nH]ncc2c(-c2c(-c3ccc(F)cn3)nn3c2OC[C@H]2C[C@H]2C3)c1F (stereo in doubt) [Example 482]")
79
>>> reading("Fc1ccc(-c2nn3c(c2-c2ccnc4[nH]ncc24)C[C@@H]2C[C@@H]23)nc1 [Example 26]")
32
>>> reading("Fc1ccc(-c2nn3c(c2-c2ccnc4[nH]ncc24)C(F)(F)CC3)nc1 [Example 14]")
293
>>> reading("Cc1cc(-c2c(-c3ccc(F)cn3)nn3c2C[C@@H]2C[C@@H]23)c2cn[nH]c2n1 [Example 28]")
19

I = Fc1cc(-c2nn3c(c2-c2ccnc4[nH]ncc24)COCC3)ccc1Cl [Example 72]
II = Cc1cc(-c2c(-c3ccc(F)cn3)nn3c2COC(C)(C)C3)c2cn[nH]c2n1 [Example 154]
Ask: Lowest IC50? choose I or II Respond with the label that goes with your answer.
Result: II

1 = Cc1cc(-c2c(-c3cscn3)nn3c2COC(C)(C)C3)c2cn[nH]c2n1 [Example 125]
2 = Fc1ccc(-c2nn3c(c2-c2cc(C(F)F)nc4[nH]ncc24)CCC3)nc1 [Example 222]
3 = CC1(C)Cn2nc(-c3cnco3)c(-c3ccnc4[nH]ncc34)c2CO1 [Example 126]
Ask: Rank order required: IC50, descending. Output spec: labels arranged per the requested ranking.
Result: 3, 1, 2

a = CC(=O)Nc1cc(-c2c(-c3ccc(F)cn3)nn3c2OCCC3)ccn1 [Example 183]
b = Fc1ccc(-c2nn3c(c2-c2ccnc4[nH]nc(Cl)c24)OCC(F)(F)C3)cc1 [Example 470]
c = Fc1ccc(-c2nn3c(c2-c2ccnc4[nH]ncc24)CCC(F)(COC(F)(F)F)C3)nc1 (single isomer, unassigned) [Example 316]
Ask: Rank order required: IC50, descending. Output spec: labels arranged per the requested ranking.
Result: a, c, b
(a: 220 nM, c: 54 nM, b: 17 nM)

P = Cc1cc(-c2c(-c3ccc(F)cc3)nn3c2COCC3)c2cn[nH]c2n1 [Example 71]
Q = C[C@]1(C(F)(F)F)Cn2nc(-c3ccc(F)cn3)c(-c3ccn4nccc4c3)c2CO1 (single isomer, unassigned) [Example 414]
R = CNC(=O)c1cc(-c2c(-c3ccc(F)cn3)nn3c2COC(C)(C(F)(F)F)C3)ccn1 (centres unmarked) [Example 175]
Ask: Rank order required: IC50, descending. Output spec: labels arranged per the requested ranking.
Result: R, Q, P

----------
- Subject of test: UniProtKB P48730
- Method description: Whole Cell nBRET CSNK1D Binding Assay
- Assay setup: living CHO cells stably expressing human CSNK1D tagged with nanoluciferase; NanoBret tracer 130 nM; 2 hours at 37 C
Parameter measured: IC50 (nM)

>>> reading("C[C@H]1C[C@H](C)n2nc(-c3ccc(F)cn3)c(-c3ccnc4[nH]ncc34)c2O1 (single isomer, unassigned)")
171

A = COc1ccc2nccc(-c3c(-c4ccc(F)cn4)nn4c3CC[C@@H]4C)c2n1
B = CC1(C)Cn2nc(-c3ccc(F)cn3)c(-c3ccn4ncc(N)c4c3)c2CO1
C = C[C@@]1(CF)CCc2c(-c3ccncc3)c(-c3ccc(F)cn3)nn2C1 (single isomer, unassigned)
D = [2H]C([2H])([2H])OC([2H])([2H])[C@]1(F)CCc2c(-c3cc(C)nc4[nH]ncc34)c(-c3ccc(F)cn3)nn2C1 (single isomer, unassigned)
E = Fc1ccc(-c2nn3c(c2-c2c(F)cnc4[nH]ncc24)COC2(C3)CC2(F)F)nc1 (single isomer, unassigned) [Example 436]
Ask: Reorder the items by IC50, least to greatest. Output spec: labels arranged per the requested ranking.
Result: D, C, B, A, E
(D: 39 nM, C: 100 nM, B: 228 nM, A: 345 nM, E: 3960 nM)

----------
- Subject of test: UniProt P48730
- Method description: Whole Cell nBRET CSNK1D Binding Assay
- Assay setup: living CHO cells stably expressing human CSNK1D tagged with nanoluciferase; NanoBret tracer 130 nM; 2 hours at 37 C
pIC50: −log10 of the molar value.
Parameter measured: pIC50

Example results:
>>> reading("[2H]C([2H])([2H])OC[C@]1(F)CCc2c(-c3cc(C)nc4[nH]ncc34)c(-c3ccc(F)cn3)nn2C1 (single isomer, unassigned)")
7.47
>>> reading("FCC1Cn2nc(-c3ccc(F)cc3)c(-c3cnc4[nH]ncc4c3)c2CO1 (centres unmarked)")
7.82
>>> reading("Cc1nc2[nH]nc(Cl)c2c(-c2c(-c3ccc(F)cn3)nn3c2CCC3)c1F")
8.30

1 = Fc1ccc(-c2nn3c(c2-c2ccnc4[nH]ccc24)CCCC3)nc1
2 = C[C@H]1OCCn2nc(-c3ccc(F)cn3)c(-c3ccnc4[nH]ccc34)c21
Ask: Lowest pIC50? choose 1 or 2 Respond with the label that goes with your answer.
Result: 2
